target: T1, huZIP12-ECD-GST (human, UniProt Q504Y0 24-202); experiment: SPR single cycle kinetics (Biacore): mAb captured on protein A, huZIP12-ECD-GST injected at 3.12-800 nM
T1 construct: also called hZIP12-ECD-GST; human ZIP12-ECD-GST; not shown: glutathione S-transferase (GST) tag
T1 sequence (Q504Y0 24-202): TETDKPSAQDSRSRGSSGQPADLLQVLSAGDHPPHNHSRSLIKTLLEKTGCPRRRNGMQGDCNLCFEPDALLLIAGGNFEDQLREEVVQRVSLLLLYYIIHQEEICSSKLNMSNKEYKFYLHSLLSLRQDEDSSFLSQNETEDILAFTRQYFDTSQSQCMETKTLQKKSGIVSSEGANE
ENDPOINT_LABEL: koff (s⁻¹)
Numbers only, in s⁻¹.

BINDER	MEASUREMENT_UNIT	koff
H2_T57H_L1 (antibody, V domains shown, Fc null human IgG1 / human kappa) VH: QVQLVESGGGVVQPGRSLRLSCAASGFTFSDYGMHWVRQAPGKGLEWVAYISSGGTHIYYADTVKGRFTISRDNSKNTLYLQMNSLRAEDTAVYYCARWTNLYAMDYWGQGTTVTVSS VL: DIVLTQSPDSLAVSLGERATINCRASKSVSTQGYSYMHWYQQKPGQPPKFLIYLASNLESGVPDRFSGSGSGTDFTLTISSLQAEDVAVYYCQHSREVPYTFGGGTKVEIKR	s⁻¹	3.3e-05
H3_W99H_L1 (antibody, V domains shown, Fc null human IgG1 / human kappa) VH: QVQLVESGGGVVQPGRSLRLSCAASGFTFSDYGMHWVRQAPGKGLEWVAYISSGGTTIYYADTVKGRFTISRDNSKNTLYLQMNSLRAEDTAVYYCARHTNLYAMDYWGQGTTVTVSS VL: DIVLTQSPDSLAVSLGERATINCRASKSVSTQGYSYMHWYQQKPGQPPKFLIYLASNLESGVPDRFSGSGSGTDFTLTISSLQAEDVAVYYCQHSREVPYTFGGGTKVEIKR	s⁻¹	4.98e-05
H3_M105P_VL-par (antibody, V domains shown, Fc null human IgG1 / human kappa) VH: QVQLVESGGGVVQPGRSLRLSCAASGFTFSDYGMHWVRQAPGKGLEWVAYISSGGTTIYYADTVKGRFTISRDNSKNTLYLQMNSLRAEDTAVYYCARWTNLYAPDYWGQGTTVTVSS VL: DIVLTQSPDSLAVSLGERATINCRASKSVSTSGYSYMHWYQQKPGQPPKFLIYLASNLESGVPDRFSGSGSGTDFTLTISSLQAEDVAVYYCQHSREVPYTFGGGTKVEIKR	s⁻¹	4.03e-05
H2_T56H_L1 (antibody, V domains shown, Fc null human IgG1 / human kappa) VH: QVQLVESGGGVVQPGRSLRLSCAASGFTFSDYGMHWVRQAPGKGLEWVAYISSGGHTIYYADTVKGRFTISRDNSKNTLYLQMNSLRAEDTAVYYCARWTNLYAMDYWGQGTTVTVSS VL: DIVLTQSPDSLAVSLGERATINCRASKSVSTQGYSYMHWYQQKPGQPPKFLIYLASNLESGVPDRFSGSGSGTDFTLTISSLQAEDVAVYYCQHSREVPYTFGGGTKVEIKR	s⁻¹	3.45e-05

Per the records, this binder ( H2_K65P_L2 (antibody, V domains shown, Fc null human IgG1 / human kappa) VH: QVQLVESGGGVVQPGRSLRLSCAASGFTFSDYGMHWVRQAPGKGLEWVAYISSGGTTIYYADTVPGRFTISRDNSKNTLYLQMNSLRAEDTAVYYCARWTNLYAMDYWGQGTTVTVSS VL: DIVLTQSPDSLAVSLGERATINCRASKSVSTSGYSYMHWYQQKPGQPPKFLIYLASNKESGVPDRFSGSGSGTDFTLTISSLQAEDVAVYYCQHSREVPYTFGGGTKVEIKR ) has koff equal to 2.62e-05
